All figures here come from PubChem BioAssay AID248.

// reported T/C for each item listed
# Tested on: L1210 leukemia ip in BDF1 mice, survival T/C
# assay.info: NCI In Vivo Anticancer Drug Screen. Data for tumor model L1210 Leukemia (intraperitoneal) in B6D2F1 (BDF1) mice
# test.conditions: endpoint: mean survival time; dose: 400.0 mg/kg/injection; schedule: Q01DX009 (ip); vehicle: saline; higher = longer survival
Toxic doses and inconclusive results are not listed.
endpoint.name: T/C

CCOC(=O)c1ccc(=O)[nH]c1 :: 93 % of control
CC(=O)Nc1nc(Cl)c2ncn(C3CC(OC(=O)c4ccc(C)cc4)C(COC(=O)c4ccc(C)cc4)O3)c2n1 (configuration not stated) :: 107 % of control
CCOc1ccc(=O)[nH]n1 :: 95 % of control
CCOC(=O)C(NC(C)=O)C(N)=S (configuration not stated) :: 105 % of control
O=C(O)CCCSCCSCCCC(=O)O :: 86 % of control
CC(=O)OCCCCBr :: 98 % of control
O=C1NC(=O)C(c2ccccc2)(c2ccc(Cl)cc2Cl)N1 (configuration not stated) :: 89 % of control
